Below, each entry is listed alongside its reported melting point.

- COMPOUND: "COc1cccc2cc(CNCCNC(=O)C34CC5CC(CC(C5)C3)C4)oc12"
  melting point: "105 to 110 °C"
- COMPOUND: "CN(CC(O)[C@H](Cc1ccccc1)NC(=O)c1ccccc1)C(=O)N1CCC[C@H]1C(=O)O (stereo not given in full)"
  melting point: "108 to 117 °C"
- COMPOUND: "O=C(O)c1ccc(COCc2csc3nc(C(=O)NCCc4ccccc4)[nH]c(=O)c23)cc1"
  melting point: "227 to 229 °C"
- COMPOUND: "Cc1ccc(S(=O)(=O)CNc2ccc(C(F)(F)F)cc2)cc1"
  melting point: "135 °C"
- COMPOUND: "Cc1ccc(S(=O)(=O)Nc2ccc(Cl)cc2[N+](=O)[O-])cc1"
  melting point: "110 to 111 °C"
- COMPOUND: "COc1cccc2c(=O)cc(C=Cc3ccc(C(=O)O)cc3)oc12"
  melting point: "298 to 300 °C"
- COMPOUND: "O=[N+]([O-])c1cccc(Sc2ccc(-c3ccc(Br)cc3)s2)c1"
  melting point: "120 to 122 °C"
- COMPOUND: "[N-]=[N+]=Nc1cccc2cccc(O)c12"
  melting point: "65 to 67 °C"
- COMPOUND: "CS(=O)c1ccc2c(c1)C(=O)C1(CC1)O2 (stereo not given)"
  melting point: "87 to 90 °C"
- COMPOUND: "COc1ccc(CC2C(=O)N(Cc3ccccc3)c3ccccc3N=C2C)cc1 (stereo not given)"
  melting point: "136 to 137 °C"
- COMPOUND: "CN1CCC(c2[nH]c(=O)c3ccccc3c2-c2ccc(Cl)cc2)CC1"
  melting point: "254 to 256 °C"
- COMPOUND: "COc1cccc2ncoc12"
  melting point: "28 to 31 °C"
- COMPOUND: "Fc1ccccc1-c1c(OCc2ncnn2CC(F)F)nn2c(-c3ccccc3F)nncc12"
  melting point: "179 to 180 °C"
- COMPOUND: "COCCNC(=O)c1ccc(C)c(-n2c(C)cc(OCc3ccc(F)cc3CNC(=O)Nc3cc(C(C)(C)C)nn3-c3ccc(Cl)c(O)c3)c(Cl)c2=O)c1"
  melting point: "186 to 187 °C"
- COMPOUND: "CCOC(=O)c1ccc(N=C(Nc2ccc(C(=O)OCC)cc2)c2ccccc2)cc1"
  melting point: "170 to 172 °C"
- COMPOUND: "CCC(=O)C(=O)NC(=O)[C@@H](N)Cc1ccccc1"
  melting point: "121 to 123 °C"
- COMPOUND: "C=C(C)C(=O)OCCCCCCOc1ccc(C=Cc2ccc([N+](=O)[O-])cc2)cc1"
  melting point: "90 to 95 °C"
- COMPOUND: "Cn1c2cc(Cl)cc(Cl)c2c2cc(C(=O)N3CCOCC3)sc21"
  melting point: "224 to 226 °C"
- COMPOUND: "Nc1ccc(OC2=C(Oc3ccc(N)cc3C(F)(F)F)C(F)(F)C(F)(F)C2(F)F)c(C(F)(F)F)c1"
  melting point: "88 to 93 °C"
- COMPOUND: "COc1cc(O)ccc1C1=NC2=CCC(=O)NC2=N1"
  melting point: "> 270 °C"

----------
Below, each entry is listed alongside its reported melting point.
MEASURE: melting point

- COMPOUND: "CCCCCN(CCC12CC3CC(CC(C3)C1)C2)C(=O)NCCC(C)c1ccncc1 (stereo not given)"
  MEASURE: "melting point"
  MEASUREMENT: "93 to 98 °C"
- COMPOUND: "O=C(Nc1cc(F)cc2c(=O)cc(C(=O)O)oc12)c1ccc2c(c1)CC(CCCc1ccccc1)O2 (stereo not given)"
  MEASURE: "melting point"
  MEASUREMENT: "183 to 185 °C"
- COMPOUND: "CCNC(=O)C=Cc1ccc(C(=C(CC)c2ccccc2)c2ccccc2)cc1"
  MEASURE: "melting point"
  MEASUREMENT: "192 to 193 °C"
- COMPOUND: "COC(=O)C1=C(C)NC(C)=C(C(=O)OCCCCCCCCCCCN2C(=O)c3ccccc3C2=O)C1c1cccc([N+](=O)[O-])c1 (stereo not given)"
  MEASURE: "melting point"
  MEASUREMENT: "130 to 132 °C"
- COMPOUND: "Cc1nccn1-c1cccc(C2=Nc3ccc(-c4ccccc4F)cc3NC(=O)C2)c1"
  MEASURE: "melting point"
  MEASUREMENT: "187 °C"
- COMPOUND: "CC(=O)N1CCn2c3c(c4cccc(c42)C1)CCCCCC3"
  MEASURE: "melting point"
  MEASUREMENT: "41 to 44 °C"
- COMPOUND: "Clc1cc(Br)cnc1Br"
  MEASURE: "melting point"
  MEASUREMENT: "40 to 41 °C"
- COMPOUND: "CC(C)(C)N1CC(c2ccc([N+](=O)[O-])cc2)OC1=O (stereo not given)"
  MEASURE: "melting point"
  MEASUREMENT: "123 to 125 °C"
- COMPOUND: "O=C(O)c1ccc(C(F)(F)C(F)(F)F)cc1[N+](=O)[O-]"
  MEASURE: "melting point"
  MEASUREMENT: "124 to 135 °C"
- COMPOUND: "N=C(N)Nc1nc(Cl)cc(Cl)n1"
  MEASURE: "melting point"
  MEASUREMENT: "> 360 °C"
- COMPOUND: "C=COCCONC(=O)c1cc(Cl)c(F)c(F)c1Nc1ccc(I)cc1F"
  MEASURE: "melting point"
  MEASUREMENT: "119 to 120 °C"
- COMPOUND: "CN(C)C(=CC(=O)C(F)(F)F)NCc1ccc(Cl)nc1"
  MEASURE: "melting point"
  MEASUREMENT: "85 °C"
- COMPOUND: "CCC(C)(C)c1ccc(OC(C)=O)c(C2(OC(C)=O)C(=O)c3ccccc3C2=O)c1"
  MEASURE: "melting point"
  MEASUREMENT: "146 to 151 °C"
- COMPOUND: "CC(C)(C)C(=O)OCn1nc2ccc(NCCCN3CCC(OC(c4ccccc4)c4ccccc4)CC3)nn2c1=O"
  MEASURE: "melting point"
  MEASUREMENT: "168 to 171 °C"
- COMPOUND: "COC(=O)C(CC(C)C)NC(=O)c1cc([N+](=O)[O-])cc([N+](=O)[O-])c1 (stereo not given)"
  MEASURE: "melting point"
  MEASUREMENT: "143 to 145 °C"
- COMPOUND: "C#CCOc1ccc2c(c1)c(-c1ccc(C(C)C)cc1)nc(=O)n2Cc1cccc(O)c1"
  MEASURE: "melting point"
  MEASUREMENT: "230 °C"
- COMPOUND: "CC(C)c1nn(-c2ccc(C(F)(F)F)nn2)cc1CCCO"
  MEASURE: "melting point"
  MEASUREMENT: "113 to 114 °C"
- COMPOUND: "O=C(CNC(=O)c1ccc([N+](=O)[O-])c(I)c1)OCC(Cl)(Cl)Cl"
  MEASURE: "melting point"
  MEASUREMENT: "98 to 100 °C"
- COMPOUND: "Brc1cc(Br)cc(Cc2cccnc2)c1"
  MEASURE: "melting point"
  MEASUREMENT: "70 to 72 °C"
- COMPOUND: "CC(C)(C)OC(=O)CON=C(C(=O)OC(c1ccccc1)c1ccccc1)c1ncsn1"
  MEASURE: "melting point"
  MEASUREMENT: "139 to 141 °C"
- COMPOUND: "CC=CCONC(C)=C1C(=O)CC(CCSc2ccc(C(F)(F)F)cc2)CC1=O (stereo not given)"
  MEASURE: "melting point"
  MEASUREMENT: "72 to 73 °C"
- COMPOUND: "O=c1nc(-c2cccc(C(F)(F)F)c2)sc2ccccc12"
  MEASURE: "melting point"
  MEASUREMENT: "115 °C"
- COMPOUND: "CCOC(=O)N1CCC(Nc2nc3ccccc3[nH]2)CC1"
  MEASURE: "melting point"
  MEASUREMENT: "231 to 233 °C"
- COMPOUND: "Cc1nc(N)ccc1Cl"
  MEASURE: "melting point"
  MEASUREMENT: "74 to 75 °C"
- COMPOUND: "O=C(CCCCCNC(=O)OCc1ccccc1)NCCc1ccc(O)cc1"
  MEASURE: "melting point"
  MEASUREMENT: "108 °C"
- COMPOUND: "COc1cn(-c2ccc(N(N)C(=O)OC(C)(C)C)cc2F)nc(-c2ccnn2-c2ccccc2)c1=O"
  MEASURE: "melting point"
  MEASUREMENT: "163 to 165 °C"
- COMPOUND: "CCSc1cc2ccccc2c(=O)n1Cc1ccccc1"
  MEASURE: "melting point"
  MEASUREMENT: "79 to 80 °C"
- COMPOUND: "O=C1CCSC(=S)N1c1ccccn1"
  MEASURE: "melting point"
  MEASUREMENT: "157 °C"
- COMPOUND: "CCOC(=O)N1CCC(c2[nH]nc3c2C(=O)c2c(NC(=O)NN4CCOCC4)cccc2-3)CC1"
  MEASURE: "melting point"
  MEASUREMENT: "206 to 207 °C"
- COMPOUND: "COc1cccc2c1Sc1c(OC)cccc1C2(CCOS(C)(=O)=O)CCOS(C)(=O)=O"
  MEASURE: "melting point"
  MEASUREMENT: "176 to 178 °C"
- COMPOUND: "N#CCOc1ccc2cc(-c3cnc(Cc4ccc5ccccc5c4)o3)ccc2c1"
  MEASURE: "melting point"
  MEASUREMENT: "155 to 158 °C"
- COMPOUND: "Clc1ccc(Cl)c(CN2CCNc3ncc(I)cc32)c1"
  MEASURE: "melting point"
  MEASUREMENT: "169 °C"
- COMPOUND: "Cc1cc(Oc2cccc(C(F)(F)F)c2)nn1C(N)=O"
  MEASURE: "melting point"
  MEASUREMENT: "76 to 77 °C"
- COMPOUND: "COC(=O)c1ccc(Cl)cc1NS(C)(=O)=O"
  MEASURE: "melting point"
  MEASUREMENT: "126 to 128 °C"
- COMPOUND: "CC(=O)Oc1ccc(C(C)C)c(NC(=O)CN2CCN(CCSc3nc4ccccc4o3)CC2)c1C(C)C"
  MEASURE: "melting point"
  MEASUREMENT: "129 to 131 °C"
- COMPOUND: "COC(=O)c1cn(Cc2ccc(OCc3nc(-c4ccccc4)oc3C)cc2)cc1-c1ccccc1"
  MEASURE: "melting point"
  MEASUREMENT: "115 to 116 °C"
- COMPOUND: "O=C(O)c1ccc2[nH]c3ccccc3c2c1"
  MEASURE: "melting point"
  MEASUREMENT: "271 to 272 °C"
- COMPOUND: "Cc1c(C)c2c(c(C)c1N)CC(C)(CN1CCN(CCc3ccccc3)CC1)O2 (stereo not given)"
  MEASURE: "melting point"
  MEASUREMENT: "99 to 100 °C"
- COMPOUND: "CCCc1ccc(S(=O)(=O)Nc2ccc3ncncc3c2)cc1"
  MEASURE: "melting point"
  MEASUREMENT: "202 to 203 °C"
- COMPOUND: "N#Cc1ccc2[nH]c(=O)c3ccccc3c(=O)c2c1"
  MEASURE: "melting point"
  MEASUREMENT: "> 300 °C"
